- Test system: SNB-75 CNS
- procedure-details: NCI tumour cell line growth inhibition, 48 h
measurement-kind: TGI

Consider the reported TGI for these compounds:
compound=CN(C)CCNC(=O)c1cccc2nc3c(nc12)-c1ccccc1C3=O measurement_kind=TGI result="31 µM"
compound=O=c1cc(-c2ccccc2)[nH]n1-c1nc2ccccc2[nH]1 measurement_kind=TGI result="> 100 µM"
compound="Cc1nc2ccc(S(=O)(=O)O)cc2c(=O)n1-c1ccc(C(=O)NN2C(=O)C(Cl)C2c2ccccc2O)cc1 (stereo unspecified)" measurement_kind=TGI result="> 100 µM"
compound=Cn1cc(-c2cnc3ccc4ccc(CS(=O)(=O)NCc5ccccn5)cc4c(=O)c3c2)cn1 measurement_kind=TGI result="47.8 µM"
compound=Oc1[nH]c2ccccc2c1N=Nc1nc(-c2ccc(Cl)c(Cl)c2)cs1 measurement_kind=TGI result="> 100 µM"

Moving on to another compound below.
I'd like to know its TGI. The compound in question is C=C1C(=O)OCC2C(C(=O)O)=CC3C(C)C(C)=CC123 (stereo unspecified)
44.1 µM

---

- Tested on: DU-145 prostate
- procedure-details: NCI tumour cell line growth inhibition, 48 h; in the data active means GI50 below about 0.43 µM; inactive means the rest
Reply using exactly one outcome from active, inactive

Worked examples, 5 compounds total:
compound=CCN1c2ccccc2C(Cl)(c2ccc(N(C)C)cc2)c2ccccc21 group=inactive
compound="COc1cc2c[n+](C)c3c4ccccc4ccc3c2cc1OC (tested in a mixture with another compound)" group=inactive
compound=O=C(CCl)N1c2ccccc2Sc2ccc3ccccc3c21 group=inactive
compound=Cc1c(C)[n+](=O)c(C)c(C)n1[O-] group=inactive
compound=C=C1C(=O)O[C@H]2[C@H]1CC/C(COC(=O)NCCc1c[nH]c3ccc(OC)cc13)=C\CC[C@@]1(C)O[C@@H]21 group=inactive

Outcome? Cc1c2c[n+](C(C)C)ccc2c(C)c2c1[nH]c1ccccc12
inactive

Just curious, what result did c1ccc(-n2nnnc2-c2cccc3ccccc23)cc1 get here?
inactive

Check the results log: what was the call for NC1=NC(c2ccc(Cl)cc2)C2=C(N1)/C(=C/c1ccc(Cl)cc1)CCC2 (stereo not given) ?
inactive

Outcome logged for O=C(O)c1cc2cc(OCc3ccccc3)c(OCc3ccccc3)cc2[nH]1 in this assay:
inactive

Per the records of this test, what outcome belongs to Cc1ccc(SC2=CC(=O)c3nc4ccccc4c4ccnc2c34)cc1 ?
inactive

// outcome(item) with item = CN1CCN(Cc2ccc(NC(=O)c3ccc(C#Cc4c(N)ncc5ccc(F)cc45)cc3)cc2C(F)(F)F)CC1
inactive

Please let me know the test result on file for COc1ccc(-c2ccc(-c3ccc(-c4ccc(C(=N)N)cc4)s3)s2)cc1OC .
inactive

Check the results log: what was the call for COc1cc(/C=C2\CN(C)C/C(=C\c3cc(CN4CCCCC4)c(O)c(OC)c3)C2=O)cc(CN2CCCCC2)c1O ?
inactive

Fill in: this test's call for COc1ccc2nc3cc(Cl)ccc3c(NCCCNCCC(C)O)c2c1 (stereo not given) is ___
active

Assay result, entry NS(=O)(=O)c1cccc(N=Cc2c(O)[nH]c3ccccc23)c1 — outcome?
inactive

---

- Test system: LOX IMVI melanoma
- procedure-details: NCI tumour cell line growth inhibition, 48 h
measurement-kind: TGI

Below, each entry is followed by its recorded TGI result.
compound=O=S1(=O)c2ccccc2C(=NO)c2ccccc21 result="> 100 µM"
compound="COC(=O)/C=C1\\CCC(C)(C(=O)NS(=O)(=O)c2ccc(C)cc2)C1(C)C (centres undefined)" result="> 100 µM"
compound="O=C(CC(=O)N1N=C(N2c3ccccc3Sc3ccccc32)CC1c1ccccc1)Nc1ccc(Cl)cc1 (centres undefined)" result="> 100 µM"

# evaluate next
Enter reported TGI observed with LOX IMVI melanoma for COc1cc(-c2nc3sc4c(c3c(=O)[nH]2)CCCCCC4)cc(OC)c1OC
> 33.2 µM
